Answer each item with its documented IC50 or % Inhibition TF-VIIa (30 µM).
- Assay target: TF-VIIa (Homo sapiens, UniProt P08709)
- Construct: 2nM recombinant human factor VIIa; purchased American Diagnostica, Greenwich CT; host or cells: soluble TF made in house in E. coli
- Sequence (P08709 213-466 limits assumed): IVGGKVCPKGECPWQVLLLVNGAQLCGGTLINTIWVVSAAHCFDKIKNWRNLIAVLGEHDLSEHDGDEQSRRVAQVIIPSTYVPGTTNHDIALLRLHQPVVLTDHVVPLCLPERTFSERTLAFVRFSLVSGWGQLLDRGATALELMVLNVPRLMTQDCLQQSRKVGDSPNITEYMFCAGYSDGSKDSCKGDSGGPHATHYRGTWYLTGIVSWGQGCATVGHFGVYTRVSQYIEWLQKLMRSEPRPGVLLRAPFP
- Sequence (P08709 61-212 limits assumed): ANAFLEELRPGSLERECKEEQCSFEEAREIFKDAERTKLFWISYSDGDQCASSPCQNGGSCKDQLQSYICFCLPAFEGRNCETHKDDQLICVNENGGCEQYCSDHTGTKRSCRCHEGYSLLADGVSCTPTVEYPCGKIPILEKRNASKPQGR
- Sequence (P13726 33-251 partner limits assumed): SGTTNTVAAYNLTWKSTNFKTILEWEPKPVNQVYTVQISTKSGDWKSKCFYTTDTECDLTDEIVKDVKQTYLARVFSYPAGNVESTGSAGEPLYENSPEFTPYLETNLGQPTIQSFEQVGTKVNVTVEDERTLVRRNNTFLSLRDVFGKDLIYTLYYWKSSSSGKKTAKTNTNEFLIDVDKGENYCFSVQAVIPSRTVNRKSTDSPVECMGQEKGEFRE
- Procedure text: TF-VIIa Assay
- Format: biochemical
Numbers only, in %.

Known results for molecules:
- Cc1cc(Cl)cc(Cl)c1CNc1nc(Cl)c(-c2ccccc2)n(CC(=O)NCc2ccc(C(=N)N)cc2)c1=O [1512-45]: 27
- N=C(N)c1ccc(CNC(=O)Cn2c(-c3ccccc3)c(Cl)nc(NCc3ccccn3)c2=O)cc1 [1507-24]: 0

Now consider the entry below.
Observed IC50 or % Inhibition TF-VIIa (30 µM) on TF-VIIa (Homo sapiens, UniProt P08709), entry N=C(N)c1ccc(CNC(=O)Cn2c(-c3ccccc3)c(Cl)nc(NCc3cc(F)cc(C(F)(F)F)c3)c2=O)cc1 [1512-29] , equals 47

###

I'd be grateful if you could share measured IC50 for these entries.
- Assay target: TF-VIIa (Homo sapiens)
- Construct: 2nM recombinant human factor VIIa; purchased American Diagnostica, Greenwich CT; host or cells: soluble TF made in house in E. coli
- Procedure text: TF-VIIa Assay
- Type: biochemical
- Measurement conditions: cells without % sign: IC50; read-out: IC50 or % Inhibition TF-VIIa (30 µM)
Give bare numbers, in nM.

See these solved cases before continuing.
* CN(C)CCNc1nc(Cl)c(-c2cccc(N)c2)n(CC(=O)NCc2ccc(C(=N)N)cc2)c1=O | 690
* CNc1nc(Cl)c(-c2cccc(N)c2)n(CC(=O)NCc2ccc(C(=N)N)cc2)c1=O | 60

Lab note: each compound below needs its IC50 filled in.
1. N=C(N)c1ccc(CNC(=O)Cn2c(-c3cccc(N)c3)c(Cl)nc(NC3CCC3)c2=O)c(F)c1
2. N=C(N)c1ccc(CNC(=O)Cn2c(-c3cccc(N)c3)c(Cl)nc(NCCCO)c2=O)cc1

1. 40
2. 90

###

Observed IC50 or % Inhibition Factor Xa (30 µM), system UniProtKB P00742.
Sequence (P00742 235-488 limits assumed): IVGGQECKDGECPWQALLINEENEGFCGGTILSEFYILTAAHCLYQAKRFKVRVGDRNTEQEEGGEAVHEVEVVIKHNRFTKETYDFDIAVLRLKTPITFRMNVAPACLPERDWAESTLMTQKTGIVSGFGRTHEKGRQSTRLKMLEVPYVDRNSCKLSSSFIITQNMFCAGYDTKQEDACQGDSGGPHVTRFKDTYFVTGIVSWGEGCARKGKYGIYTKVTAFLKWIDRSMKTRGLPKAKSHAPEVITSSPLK
Sequence (P00742 41-179 limits assumed): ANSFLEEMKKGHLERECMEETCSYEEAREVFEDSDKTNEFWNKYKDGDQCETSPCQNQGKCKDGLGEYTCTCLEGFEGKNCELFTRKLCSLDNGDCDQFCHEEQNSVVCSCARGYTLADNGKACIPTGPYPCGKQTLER
Give bare numbers, in %.

Guide cases for IC50 or % Inhibition Factor Xa (30 µM), answers given:
• Cc1c(Cl)nc(NCCc2cccnc2)c(=O)n1CC(=O)NCc1ccc(C(=N)N)cc1 = 27
• CC(C)N(C)c1nc(Cl)c(-c2ccccc2)n(CC(=O)NCc2ccc(C(=N)N)cc2)c1=O = 0
• N=C(N)c1ccc(CNC(=O)Cn2c(-c3cccc(Cl)c3)c(Cl)nc(NCCc3cccnc3)c2=O)cc1 = 25
• CN(C)CCCNc1nc(Cl)c(-c2ccccc2)n(CC(=O)NCc2ccc(C(=N)N)cc2)c1=O = 19

Report IC50 or % Inhibition Factor Xa (30 µM) for every entry below.
1. Cc1cc(Cl)cc(Cl)c1CNc1nc(Cl)c(-c2ccccc2)n(CC(=O)NCc2ccc(C(=N)N)cc2)c1=O
2. N=C(N)c1ccc(CNC(=O)Cn2c(-c3ccccc3)c(Cl)nc(NCCc3cccnc3)c2=O)cc1
3. CCCCCNc1nc(Cl)c(-c2ccccc2)n(CC(=O)NCc2ccc(C(=N)N)cc2)c1=O
4. Nc1n[nH]c2cc(CNC(=O)Cn3c(-c4ccccc4)cnc(NCCc4ccccc4)c3=O)ccc12

[11, 23, 0, 0]

# credit: patent EP1202975B1
